Ref: paper PMC4450297

Target: Tyk2 (Homo sapiens, UniProt P29597)
Construct: purchased Carna Bioscience, Inc. (Japan)
Sequence (P29597 whole entry): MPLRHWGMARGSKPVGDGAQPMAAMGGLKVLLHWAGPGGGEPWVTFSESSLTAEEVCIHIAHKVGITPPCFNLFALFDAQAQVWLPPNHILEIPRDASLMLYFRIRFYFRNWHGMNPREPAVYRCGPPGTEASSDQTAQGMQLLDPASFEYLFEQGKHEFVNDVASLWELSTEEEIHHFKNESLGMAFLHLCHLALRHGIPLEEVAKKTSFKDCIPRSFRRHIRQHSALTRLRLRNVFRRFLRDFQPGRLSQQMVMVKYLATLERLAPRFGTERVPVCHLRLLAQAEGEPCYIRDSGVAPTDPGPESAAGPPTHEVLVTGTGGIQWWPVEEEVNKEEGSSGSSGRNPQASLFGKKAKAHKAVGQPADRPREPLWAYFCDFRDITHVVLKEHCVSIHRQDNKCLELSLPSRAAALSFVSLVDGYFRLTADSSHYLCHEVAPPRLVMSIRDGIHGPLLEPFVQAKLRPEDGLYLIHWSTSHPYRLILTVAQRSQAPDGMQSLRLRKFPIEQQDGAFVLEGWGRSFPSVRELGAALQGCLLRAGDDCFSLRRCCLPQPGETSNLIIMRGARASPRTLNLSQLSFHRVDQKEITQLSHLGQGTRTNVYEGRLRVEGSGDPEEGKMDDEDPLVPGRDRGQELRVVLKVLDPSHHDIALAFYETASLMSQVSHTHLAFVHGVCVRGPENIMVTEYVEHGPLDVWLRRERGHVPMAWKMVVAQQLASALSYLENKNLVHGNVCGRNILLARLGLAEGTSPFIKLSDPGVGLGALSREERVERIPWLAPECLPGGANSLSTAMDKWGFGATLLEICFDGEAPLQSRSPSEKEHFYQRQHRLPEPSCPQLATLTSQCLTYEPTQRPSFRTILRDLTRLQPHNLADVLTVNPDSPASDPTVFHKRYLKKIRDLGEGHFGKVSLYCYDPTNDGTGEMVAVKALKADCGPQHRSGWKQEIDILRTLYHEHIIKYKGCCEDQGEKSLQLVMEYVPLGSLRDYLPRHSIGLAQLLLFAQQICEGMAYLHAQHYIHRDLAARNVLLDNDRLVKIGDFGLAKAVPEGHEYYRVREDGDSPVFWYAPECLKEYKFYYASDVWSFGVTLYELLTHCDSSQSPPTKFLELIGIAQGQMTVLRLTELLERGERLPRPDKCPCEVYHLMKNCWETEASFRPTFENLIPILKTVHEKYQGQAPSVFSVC
Assay: Microfluidic mobility shift enzyme assay
Format: biochemical
READOUT_KIND: IC50

Note IC50 for the compound shown: `CC(C)=CCC/C(C)=C/Cc1c(O)c(CC=C(C)C)c2c(c1O)C(=O)C1=C[C@@H]3C[C@H]4C(C)(C)O[C@@](CC=C(C)C)(C3=O)[C@@]14O2` > 40 µM

----------
System: NCI-H524
Assay: Cell panel screen (CellTiter-Glo)
Format: cell-based, human
Details: Homo sapiens; NCI-H524 (Lung), 20 micromolar, 72 hrs; read-out: Percent Inhibition
Could you please report measured inhibition at 20 µM for the items listed next?
Answers are plain numbers, in %.

Worked cases, inhibition at 20 µM given:
COMPOUND | inhibition at 20 µM / %
CC(C)=CCC/C(C)=C/Cc1c(O)c(CC=C(C)C)c2c(c1O)C(=O)C1=C[C@@H]3C[C@H]4C(C)(C)O[C@@](C/C=C(\C)C(=O)O)(C3=O)[C@@]14O2 | 98
CC(C)=CCC/C(C)=C/Cc1c(O)c(CC=C(C)C)c2c(c1O)C(=O)C1=C[C@@H]3C[C@H]4C(C)(C)O[C@@](C/C=C(\C)C=O)(C3=O)[C@@]14O2 | 100
CC(C)=CCC[C@@]1(C)C=Cc2c(O)c3c(c(CCC(C)(C)O)c2O1)O[C@]12C(=C[C@@H]4C[C@H]1C(C)(C)O[C@@]2(C/C=C(/C)C(=O)O)C4=O)C3=O [GB39, 33-hydroxyepigambogic acid] | 100
CC(C)=CCc1c(O)cc2oc3c(CC=C(C)C)c(O)c(O)c(CC=C(C)C)c3c(=O)c2c1O | 100

Now turn to the next compound.
Note inhibition at 20 µM for the compound shown: CC(C)=CCC[C@@]1(C)C=Cc2c(O)c3c(c(C/C=C(\C)CO)c2O1)O[C@]12C(=C[C@@H]4C[C@H]1C(C)(C)O[C@@]2(C/C=C(/C)C(=O)O)C4=O)C3=O [GB40, 35-hydroxyepigambogic acid] 99

----------
Biological target: JAK3 (Homo sapiens)
Construct: purchased Carna Bioscience, Inc. (Japan)
Sequence (P52333 whole entry): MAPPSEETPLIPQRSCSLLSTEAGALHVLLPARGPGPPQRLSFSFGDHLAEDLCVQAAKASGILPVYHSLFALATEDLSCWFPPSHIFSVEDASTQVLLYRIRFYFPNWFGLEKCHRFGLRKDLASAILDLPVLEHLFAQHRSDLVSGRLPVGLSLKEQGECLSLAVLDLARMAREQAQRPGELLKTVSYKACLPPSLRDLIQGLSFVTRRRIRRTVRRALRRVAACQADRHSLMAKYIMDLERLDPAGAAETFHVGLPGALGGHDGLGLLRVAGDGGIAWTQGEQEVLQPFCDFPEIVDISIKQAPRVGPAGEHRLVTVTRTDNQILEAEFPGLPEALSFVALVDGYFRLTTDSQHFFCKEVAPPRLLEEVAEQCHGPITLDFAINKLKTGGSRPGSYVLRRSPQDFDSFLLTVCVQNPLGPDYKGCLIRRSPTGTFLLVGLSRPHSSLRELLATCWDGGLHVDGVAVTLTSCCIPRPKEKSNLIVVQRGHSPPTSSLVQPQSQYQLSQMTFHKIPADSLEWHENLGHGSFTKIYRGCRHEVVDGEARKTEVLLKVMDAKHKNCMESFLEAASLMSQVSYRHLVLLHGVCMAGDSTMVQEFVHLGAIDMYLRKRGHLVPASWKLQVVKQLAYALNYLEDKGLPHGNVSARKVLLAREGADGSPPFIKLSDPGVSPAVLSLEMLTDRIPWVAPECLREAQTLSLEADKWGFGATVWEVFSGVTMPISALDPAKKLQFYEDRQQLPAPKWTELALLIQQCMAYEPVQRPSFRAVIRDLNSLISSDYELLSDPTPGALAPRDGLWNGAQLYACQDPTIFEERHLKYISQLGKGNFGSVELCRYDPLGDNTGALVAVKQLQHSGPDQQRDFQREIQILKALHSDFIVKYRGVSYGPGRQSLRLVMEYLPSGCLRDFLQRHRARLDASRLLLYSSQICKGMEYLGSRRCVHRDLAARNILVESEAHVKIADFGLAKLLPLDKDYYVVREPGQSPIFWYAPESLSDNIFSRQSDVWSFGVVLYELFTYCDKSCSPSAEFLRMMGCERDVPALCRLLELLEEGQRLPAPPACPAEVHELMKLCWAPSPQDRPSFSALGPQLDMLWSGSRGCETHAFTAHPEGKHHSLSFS
Test: Microfluidic mobility shift enzyme assay
Assay type: biochemical
Conditions: IC50, JAK3 enzyme
READOUT_KIND: IC50 (µM)
Answers are plain numbers, in µM.

Note IC50 for the compound shown: `CC(C)=CCC/C(C)=C/Cc1c(O)c(CC=C(C)C)c2c(c1O)C(=O)C1=C[C@@H]3C[C@H]4C(C)(C)O[C@@](CC=C(C)C)(C3=O)[C@@]14O2` 17.5

----------
System: HPAF-II
Assay: Cell panel screen (CellTiter-Glo)
Format: cell-based, human
Settings: HPAF-II (Pancreas), 20 micromolar, 72 hrs
true (1) if Percent Inhibition is below 30%. false (0) if not; exact matches included in false (0).

Known results for molecules:
MOLECULE | ANSWER_LABEL
CC1(C)C=Cc2c(cc(O)c3c(=O)c4ccc(O)c(O)c4oc23)O1 | false (0)
CC(C)=CCc1c2c(c(O)c3c(=O)c4c(CC=C(C)C)c(O)c(O)cc4oc13)C=CC(C)(C)O2 | false (0)

Does this molecule meet the criterion Percent Inhibition < 30%? `CC1(C)C=Cc2cc3c(=O)c4c(O)cc(O)cc4oc3c(O)c2O1` true (1)

Does this molecule meet the criterion Percent Inhibition < 30%? CCOC1C2C(=O)c3c(O)c4c(c(CC=C(C)C)c3O[C@@]23[C@H]2C[C@@H]1C(=O)[C@]3(C/C=C(/C)C(=O)O)OC2(C)C)OC(C)(CCC=C(C)C)C=C4 (stereo partly drawn) false (0)

Does this molecule meet the criterion Percent Inhibition < 30%? `CC(C)=CCc1c(O)cc2oc3ccc(O)cc3c(=O)c2c1O` true (1)

Does this molecule meet the criterion Percent Inhibition < 30%? `COc1cc(O)c2c(=O)c3cc(CC=C(C)C)c(O)c(O)c3oc2c1CC=C(C)C` false (0)

Does this molecule meet the criterion Percent Inhibition < 30%? `COc1c(CC=C(C)C)c(O)c2c(=O)c3ccc(O)c(O)c3oc2c1CC=C(C)C` false (0)

Does this molecule meet the criterion Percent Inhibition < 30%? `CC1(C)C=Cc2c(cc(O)c3c(=O)c4cc5c(c(O)c4oc23)OC(C)(C)C=C5)O1` true (1)

Does this molecule meet the criterion Percent Inhibition < 30%? `CC(C)=CCc1c(O)c(O)cc2oc3cc(O)cc(O)c3c(=O)c12` true (1)
